# GI50 listing for each entry below
- System: T47D
- EXPERIMENT_DESCRIPTION: NCI tumour cell line growth inhibition, 48 h
Active and inactive are the calls of the source. Rule as the data show it: active = GI50 up to about 1.1 µM and inactive = higher.

COMPOUND	GI50
CC(=O)Nc1ccc(NC(=O)c2c(Cl)c(Cl)c(Cl)c(Cl)c2-c2nc3ccccc3[nH]2)cc1	25.7 µM (inactive)
COc1ccc(-c2cc(O)c3c(C)ccnc3n2)cc1	7.43 µM (inactive)
COC(=O)c1ccccc1C1CN=NC12Cc1ccccc1C2=O (centres undefined)	41.3 µM (inactive)
O=C1C2C(C(=O)N1c1ccccc1)C1(c3ccccc3)CCC2(C(=O)c2ccccc2)O1 (centres undefined)	> 10 µM (inactive)
